Just for reference, patent US20230151014A1 is where these values come from.

Target: recombinant human Myt1 (Homo sapiens)
Construct: full length PKMYT1 recombinant human protein expressed in insect cells
Test: Myt1 enzymatic assay (ADP-Glo kinase assay, IC50 and % max inhibition)
Conditions: recombinant human Myt1 18 nM, ATP 10 μM
pIC50: −log10 of the molar value.
MEASURED_METRIC: pIC50

Check out these entries, answers already filled in.
>>> print(df.to_string())
                                   compound  endpoint_result
0  Cc1ccc(O)cc1-n1c(N)c(C(N)=O)c2nc(-c3cccc(F)n3)ccc21 [Compound 25]             6.40
1  Cc1ccc(O)cc1-n1c(N)c(C(N)=O)c2nccnc21 [Compound 146]             5.85
2  Cc1ccc(O)c(C)c1-n1c(N)c(C(N)=O)c2nc(C#CCc3ccccc3)cnc21 [Compound 1]             7.30
3  Cc1ccc(O)c(C)c1-n1c(N)c(C(N)=O)c2ncc(C#CC(C)(C)O)nc21 [Compound 239]             7.82

A = Cc1ccc(O)c(C)c1-n1c(N)c(C(N)=O)c2ncc(C#CC(C)(C)NS(C)(=O)=O)nc21 [Compound 223]
B = Cc1ccc(O)cc1-n1c(N)c(C(N)=O)c2ncc(-c3cn[nH]c3)nc21 [Compound 155]
C = Cc1ccc(O)c(C)c1-n1c(N)c(C(N)=O)c2nc(-c3nccs3)c(C#CCN3CCOCC3)nc21 [Compound 216]
D = Cc1cnc2c(C(N)=O)c(N)n(-c3cc(O)ccc3C)c2n1 [Compound 167]
Exercise: List items by pIC50 in falling order. Sort and list the labels as requested.
Key: A, C, D, B
(A: 7.82, C: 7.12, D: 6.44, B: 5.99)

* * *

Target: recombinant human Myt1 (Homo sapiens)
Construct: full length PKMYT1 recombinant human protein expressed in insect cells
Sequence (Q99640 1-499): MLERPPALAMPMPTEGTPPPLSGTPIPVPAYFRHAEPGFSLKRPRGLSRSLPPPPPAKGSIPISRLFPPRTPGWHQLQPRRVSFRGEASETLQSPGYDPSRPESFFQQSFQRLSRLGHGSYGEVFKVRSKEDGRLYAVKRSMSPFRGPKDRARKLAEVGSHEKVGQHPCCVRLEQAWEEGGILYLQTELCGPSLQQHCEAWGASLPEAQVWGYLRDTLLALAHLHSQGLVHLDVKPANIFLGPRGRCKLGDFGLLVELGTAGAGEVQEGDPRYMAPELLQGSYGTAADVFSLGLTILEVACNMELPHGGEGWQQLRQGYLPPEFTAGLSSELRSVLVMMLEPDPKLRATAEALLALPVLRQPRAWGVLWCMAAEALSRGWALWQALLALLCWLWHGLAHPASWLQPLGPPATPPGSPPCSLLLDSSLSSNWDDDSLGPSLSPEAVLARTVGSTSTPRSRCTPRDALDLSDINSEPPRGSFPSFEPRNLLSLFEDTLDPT
Assay: Myt1 enzymatic assay (ADP-Glo kinase assay, IC50 and % max inhibition)
Conditions: recombinant human Myt1 18 nM, ATP 10 μM
pIC50: −log10 of the molar value.
MEASURED_METRIC: pIC50

                        structure_as_smiles  endpoint_result
0  Cc1ccc2c(C(N)=O)c(N)n(-c3c(C)ccc(O)c3C)c2n1           > 8.00
1  Cc1ccc(O)c(C)c1-n1c(N)c(C(N)=O)c2nc(-c3ccnnc3)cnc21           > 8.00

Exercise: Any idea what its pIC50 is? The molecule is `Cc1ccc(O)c(C)c1-n1c(N)c(C(N)=O)c2cc(I)cnc21`
Key: > 8.00

Exercise: Any idea what its pIC50 is? The molecule is `Cc1ccc(O)c(C)c1-n1c(N)c(C(N)=O)c2nc(C#CCN3CCOCC3)cnc21`
Key: 6.77
